The measurements presented in this section are drawn from patent US10654828B2.

System: FoxO3a
Assay Notes: FoxO3a inhibition: GFP-FoxO3a nuclear to cytoplasmic translocation reporter assay
Assay type: cell-based
Assay Setup: U2OS GFP-FoxO3a H212R cells, serum starved overnight, compound 30 minutes; ratio of nuclear to cytosolic GFP intensity; DMSO control 0%; read-out: FoxO AC50
Reported AC50 is given for each of the following compounds.
Returns: string containing the numeric result and its unit.

Identify AC50 associated with the compound Cc1cc(C(N)=O)nn1-c1ccc2c(ccn2Cc2ccc(NC3CCN(C)C3)cc2)c1 (single isomer, unassigned) [Example 37-2]
928 nM

Output AC50 of Cc1cc(C(N)=O)nn1-c1ccc2c(ccn2Cc2ccc(C3CCN(C)CC3(C)C)cc2)c1 (single isomer, unassigned) [Example 16-2]
161 nM

For the compound Cc1cc(C(N)=O)nn1-c1ccc2c(ccn2Cc2ccc(C3CCN(C)CC3(C)C)cc2)c1 (single isomer, unassigned) [Example 16-3] , report AC50.
1040 nM
